Molecular target: human CTLA-4 expressed on the cell surface (human, UniProt P16410 36-223)
Sequence (P16410 36-223 limits assumed): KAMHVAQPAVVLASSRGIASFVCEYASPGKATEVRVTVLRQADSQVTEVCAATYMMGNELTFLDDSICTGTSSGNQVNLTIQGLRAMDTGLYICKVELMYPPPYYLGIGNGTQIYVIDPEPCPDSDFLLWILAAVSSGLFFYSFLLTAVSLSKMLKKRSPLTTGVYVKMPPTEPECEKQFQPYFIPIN
Test: cell-based or functional assay
Catalogue of binders with associated Cell-based blocking activity EC50
Numbers only; they are read as µg/mL.

# binder antibody A4 (L4H4) (antibody, V domains shown, also called aCTLA-4.29) VH: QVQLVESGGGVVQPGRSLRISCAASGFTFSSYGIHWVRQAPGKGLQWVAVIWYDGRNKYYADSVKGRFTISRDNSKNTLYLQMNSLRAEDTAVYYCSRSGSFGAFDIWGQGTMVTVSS VL: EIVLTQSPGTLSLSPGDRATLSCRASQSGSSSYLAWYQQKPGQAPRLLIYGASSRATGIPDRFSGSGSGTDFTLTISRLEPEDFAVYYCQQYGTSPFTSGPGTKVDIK ; its Cell-based blocking activity EC50 = 0.15

# binder antibody A1 (L1H1) (antibody, V domains shown, also called aCTLA-4.9; CTLA4.A1) VH: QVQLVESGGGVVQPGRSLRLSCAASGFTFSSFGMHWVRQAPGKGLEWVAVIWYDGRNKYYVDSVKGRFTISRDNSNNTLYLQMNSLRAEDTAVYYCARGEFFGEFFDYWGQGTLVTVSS VL: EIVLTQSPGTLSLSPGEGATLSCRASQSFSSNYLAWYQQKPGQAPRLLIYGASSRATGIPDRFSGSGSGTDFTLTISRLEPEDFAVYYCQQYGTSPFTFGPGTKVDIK ; its Cell-based blocking activity EC50 = 0.13

# binder antibody A8 (L8H8) (antibody, V domains shown, also called aCTLA-4.1) VH: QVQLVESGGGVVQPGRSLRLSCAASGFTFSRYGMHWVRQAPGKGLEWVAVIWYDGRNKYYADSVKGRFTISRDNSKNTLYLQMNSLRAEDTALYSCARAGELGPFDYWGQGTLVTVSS VL: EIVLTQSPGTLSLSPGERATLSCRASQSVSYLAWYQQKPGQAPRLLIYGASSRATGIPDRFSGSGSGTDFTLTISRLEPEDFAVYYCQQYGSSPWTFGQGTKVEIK ; its Cell-based blocking activity EC50 = 0.1

# binder antibody A5 (L5H5) (antibody, V domains shown, also called aCTLA-4.28; CTLA4.A5) VH: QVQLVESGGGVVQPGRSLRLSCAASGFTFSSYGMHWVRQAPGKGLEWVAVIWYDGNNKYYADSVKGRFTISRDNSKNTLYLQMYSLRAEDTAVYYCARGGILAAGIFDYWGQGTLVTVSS VL: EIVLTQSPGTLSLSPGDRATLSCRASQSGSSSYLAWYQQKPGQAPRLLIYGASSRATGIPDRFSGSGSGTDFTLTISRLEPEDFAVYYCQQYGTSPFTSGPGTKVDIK ; its Cell-based blocking activity EC50 = 0.18
